Target: T1, human MCP-2 (human, UniProt P80075 24-99)
T1 construct: also called hMCP-2; huMCP-2
T1 sequence (looked up): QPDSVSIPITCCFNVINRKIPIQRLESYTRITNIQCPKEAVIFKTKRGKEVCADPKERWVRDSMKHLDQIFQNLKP
Experiment: KinExA, in solution, Fab
Quantity: pKd
In simple prose, pKd is minus the logarithm base ten of a concentration in moles per litre.

Entry Fab fragment of humanized 11K2 H1L2 (Fab, V domains shown) VH: QVQLVQSGAEVKKPGSSVKVSCKASGLNIKDTYMHWVRQAPGQGLEWIGRIDPANGNTKFDPKFQGRATITADTSTSTAYMELSSLRSEDTAVYYCARGVFGFFDYWGQGTTVTVSS VL: DIQMTQSPSSLSASVGDRVTITCKATEDIYNRLAWYQQKPGKAPKLLISGATSLETGVPSRFSGSGSGTDYTLTISSLQPEDFATYYCQQFWSAPYTFGGGTKVEIKR — recorded pKd = 9.15

pKd in this record for Fab fragment of humanized 11K2 H2L2 (Fab, V domains shown) VH: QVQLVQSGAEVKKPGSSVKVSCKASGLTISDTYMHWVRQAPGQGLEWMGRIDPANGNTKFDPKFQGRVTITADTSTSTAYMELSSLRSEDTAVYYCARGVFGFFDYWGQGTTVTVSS VL: DIQMTQSPSSLSASVGDRVTITCKATEDIYNRLAWYQQKPGKAPKLLISGATSLETGVPSRFSGSGSGTDYTLTISSLQPEDFATYYCQQFWSAPYTFGGGTKVEIKR : 8.49
